# system.tested: NADPH oxidase 2 (Homo sapiens) (UniProt P04839)
# Sequence (P04839 whole entry, looked up): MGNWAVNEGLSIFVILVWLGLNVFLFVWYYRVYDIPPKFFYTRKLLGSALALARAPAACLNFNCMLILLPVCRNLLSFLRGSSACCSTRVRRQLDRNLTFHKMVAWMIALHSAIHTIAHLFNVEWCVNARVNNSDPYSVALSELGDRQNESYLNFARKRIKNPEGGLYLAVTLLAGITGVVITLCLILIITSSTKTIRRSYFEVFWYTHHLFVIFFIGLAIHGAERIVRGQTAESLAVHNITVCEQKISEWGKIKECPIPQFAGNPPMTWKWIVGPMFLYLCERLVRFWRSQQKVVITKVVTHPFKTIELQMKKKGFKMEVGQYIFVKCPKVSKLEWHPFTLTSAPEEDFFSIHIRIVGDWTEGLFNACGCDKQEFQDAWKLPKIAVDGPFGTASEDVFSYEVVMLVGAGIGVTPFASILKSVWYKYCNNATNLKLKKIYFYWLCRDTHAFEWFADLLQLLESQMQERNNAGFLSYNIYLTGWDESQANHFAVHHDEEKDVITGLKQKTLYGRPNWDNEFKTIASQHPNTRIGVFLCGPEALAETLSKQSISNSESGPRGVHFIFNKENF
# experiment: NOX2-dependent H2O2 signal modulators, primary screen, NOX inhibitor project, cell-based, HEK293-NOX2, PMA-stimulated, Amplex Red fluorescence (AID 1159); also: test concentration not given here
# condition.details: 45 min, higher = more signal, called active from +8 up or from −8 down
Please enter Yes where z-score is greater than or equal to 0.2, and No where it is lower.

Textbook exercise: given the entry CC(=O)OC[C@H]1O[C@H](CC=NOC[C@@H](C)[C@H](OCc2ccccc2)C(C)C)C=C[C@@H]1OC(C)=O , state whether its z-score is greater than or equal to 0.2. No

---
Textbook exercise: given the entry Cc1ccc(S[C@]2(C(=O)NCC(F)(F)F)CC(=O)N(Cc3ccccc3Cl)[C@@H]2c2ccc(CO)cc2I)cc1 , state whether its z-score is greater than or equal to 0.2. Yes

Textbook exercise: given the entry COC(=O)[C@@]1(Cc2ccc(OC)cc2)[C@H]2c3cc(C(=O)N4CCCC4)n(Cc4cc(F)c(F)c(F)c4)c3C[C@H]2CN1C(=O)c1ccccc1 , state whether its z-score is greater than or equal to 0.2. Yes

Textbook exercise: given the entry CN(C)c1ccc(C(O)C2C=CC3C(=O)N(c4ccccc4)C(=O)C3N2Nc2ccccc2F)cc1 (configuration not stated) , state whether its z-score is greater than or equal to 0.2. No

Textbook exercise: given the entry CC(C)CN1CCc2nc(-c3ccccc3)c3c(c2CC1)CO[C@@H](C)C3 , state whether its z-score is greater than or equal to 0.2. Yes

Textbook exercise: given the entry C[C@@H](c1ccccc1)N1C(=O)[C@H]2[C@H]3[C@H](O)[C@H](O)CC(=NOC[C@@H](O)COCc4ccco4)[C@@H]3CC[C@H]2C1=O , state whether its z-score is greater than or equal to 0.2. Yes

Textbook exercise: given the entry CC(C)CON=C1[C@H]2CCn3c(=O)n(-c4ccccc4)c(=O)n3[C@H]2[C@H](O)[C@@H]2O[C@H]12 , state whether its z-score is greater than or equal to 0.2. No

###

# experiment: E. coli acrAB mutant growth effects, primary screen, E. coli filamentation inducers, strain DRC39, OD650, 48 h (AID 1179);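 also: screen aims at cell division blockers that make cells filament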
# condition.details: E. coli DRC39 delta-acrAB growth, higher = more signal, called active from +8 up or from −8 down
Please enter Met where z-score is greater than or equal to 0.5, and Not met where it is lower.

Field: example entries. Status: answers known.
Textbook exercise: given the entry CC(=O)OC[C@H]1O[C@@H](ON=C[C@@H](C)[C@H](OCc2ccccc2)C(C)C)[C@H](OC(C)=O)[C@@H](OC(C)=O)[C@@H]1OC(C)=O , state whether its z-score is greater than or equal to 0.5. Met

Textbook exercise: given the entry CC(CCC(=O)OC[C@H]1O[C@H](C#Cc2ccccc2)C=C[C@@H]1Oc1ccc(C)cc1)=NOC[C@@H](O)[C@H]1O[C@@H]2OC(C)(C)O[C@@H]2[C@H]1O , state whether its z-score is greater than or equal to 0.5. Met

Textbook exercise: given the entry CCOC(=O)[C@H](Cc1ccccc1)NC(=O)CCC1CC(OC(=O)NCCc2ccc(F)cc2)CC2(CCCC(COC(=O)NCC(c3ccccc3)c3ccccc3)O2)O1 (stereo not given in full) , state whether its z-score is greater than or equal to 0.5. Not met

---
Textbook exercise: given the entry Cc1cc2c(c(=O)o1)[C@H](O)[C@H]1O[C@H]1C2=O , state whether its z-score is greater than or equal to 0.5. Not met

Textbook exercise: given the entry CC1CC/C=C\[C@H]2OC34C=CCN(C(C)C)C(=O)[C@H]3N(CCCO)C(=O)[C@@H]4C2C(=O)O1 (stereo not given in full) , state whether its z-score is greater than or equal to 0.5. Met
